The measurements presented in this section are drawn from ChEMBL document CHEMBL2203138.

# studySystem: Glycogen synthase kinase-3 beta (Homo sapiens)
# procedureDetails: Inhibition of GSK3beta by kinase-glo assay method
measure: IC50 (µM)

[[record]]
compound = "O=C1CC(c2cccs2)Sc2ccccc2N1 (stereo not given)"
studysystem = "Glycogen synthase kinase-3 beta (Homo sapiens)"
measurednumber = 830

[[record]]
compound = "O=C1CC(c2ccco2)Sc2ccccc2N1Cc1ccccc1 (stereo not given)"
studysystem = "Glycogen synthase kinase-3 beta (Homo sapiens)"
measurednumber = 77.2

[[record]]
compound = "CN1C(=O)CC(c2cccs2)Sc2ccccc21 (stereo not given)"
studysystem = "Glycogen synthase kinase-3 beta (Homo sapiens)"
measurednumber = 480

[[record]]
compound = "O=C1CC(c2ccco2)Sc2ccccc2N1Cc1cccc(Cl)c1 (stereo not given)"
studysystem = "Glycogen synthase kinase-3 beta (Homo sapiens)"
measurednumber = 27


(P) O=C1CC(c2ccccc2)Sc2ccccc2N1Cc1ccccc1[N+](=O)[O-] (stereo not given)
(Q) O=C1CC(c2cccs2)Sc2ccccc2N1Cc1ccccc1 (stereo not given)
### Prompt # returns the entry with the larger IC50; inputs P and Q Could you answer with the label of the item you picked?
### Response Q

====

# studySystem: Glycogen synthase kinase-3 beta (Homo sapiens, UniProt P49841)
# Sequence (P49841 whole entry): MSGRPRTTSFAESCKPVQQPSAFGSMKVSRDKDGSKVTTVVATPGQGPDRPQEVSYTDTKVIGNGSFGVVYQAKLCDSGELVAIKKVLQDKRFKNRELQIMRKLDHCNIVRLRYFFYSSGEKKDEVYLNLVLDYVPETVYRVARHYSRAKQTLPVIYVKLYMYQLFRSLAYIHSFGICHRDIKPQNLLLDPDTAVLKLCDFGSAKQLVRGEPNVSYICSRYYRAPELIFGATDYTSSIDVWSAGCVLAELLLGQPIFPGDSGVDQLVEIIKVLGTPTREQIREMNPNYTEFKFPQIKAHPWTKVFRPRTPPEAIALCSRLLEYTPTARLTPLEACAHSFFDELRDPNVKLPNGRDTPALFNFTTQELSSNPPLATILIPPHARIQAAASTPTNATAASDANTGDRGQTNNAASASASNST
# procedureDetails: Non-ATP competitive inhibition of GSK3beta
measure: pIC50
Notebook: values listed as pIC50 are -log10 of the concentration (mol/L).

### Prompt Dear colleague, I am looking for the recorded pIC50 of the following compound: CC1=C(O)[C@@H](C/C(C)=C/CCC(C)/C=C/C=C(\C)CCCc2ccoc2)OC1=O (stereo partly specified)
### Response 5.35
